# Tested on: OVCAR4
# Assay: Euclidean distance of Cell Painting phenotypic profile (signed KS, 77 features) to DMSO centroid (dimensionless distance); 5 or 10 uM (library dependent); higher = stronger phenotypic change vs DMSO (phenoactivity)
# Condition notes: 48 h
Counter-ions that a name gives are not always drawn.
Value type: Euclidean distance
Lab note: jot the number down without any unit.

Take a look at these entries with their results.
{"columns": ["Molecule", "Euclidean distance"],
 "data": [
  ["COc1ccc(NC(=O)c2ccc(C(=N)N(C)C)cc2)c(C(=O)Nc2ccc(Cl)cn2)c1 [Betrixaban]", 0.904],
  ["N[C@@H](Cc1cc(I)c(Oc2ccc(O)c(I)c2)c(I)c1)C(=O)O [Liothyronine Sodium]", 0.927],
  ["CC1(C)O[C@H]2CC(=O)OC[C@]23[C@H]2CC[C@@]4(C)[C@H](c5ccoc5)OC(=O)[C@H]5O[C@]54[C@]2(C)C(=O)C[C@@H]13 [Limonin]", 1.05],
  ["COc1cc(N2CCN(C)CC2)ccc1Nc1nccc(-c2cn(C)c3cnccc23)n1", 2.69],
  ["O=c1c(-c2ccc(O)cc2)coc2cc(O)ccc12 [Daidzein]", 1.13],
  ["CC(C)(Sc1cc(C(C)(C)C)c(O)c(C(C)(C)C)c1)Sc1cc(C(C)(C)C)c(O)c(C(C)(C)C)c1 [Probucol]", 1.14],
  ["CCc1nn(CCCN2CCN(c3cccc(Cl)c3)CC2)c(=O)n1CCOc1ccccc1 [Nefazodone hydrochloride]", 0.618]
]}

Query: Euclidean distance; subject: CCCSc1ccc2[nH]c(NC(=O)OC)nc2c1 [Albendazole] 2.48

* * *

Recorded measurements of Euclidean distance, one per entry
# System: OVCAR4
# Assay: Euclidean distance of Cell Painting phenotypic profile (signed KS, 77 features) to DMSO centroid (dimensionless distance); 5 or 10 uM (library dependent); higher = stronger phenotypic change vs DMSO (phenoactivity)
# Condition notes: 48 h
Lab note: jot the number down without any unit.

Query: Euclidean distance; subject: Oc1c(Cl)cc(Cl)c(Cl)c1Cc1c(O)c(Cl)cc(Cl)c1Cl 1.64

Query: Euclidean distance; subject: Nc1ccc(S(=O)(=O)Nc2ncccn2)cc1 [Sulfadiazine] 1.43

Query: Euclidean distance; subject: C[C@H](CCC(=O)O)[C@H]1CC[C@H]2[C@@H]3[C@H](O)C[C@@H]4C[C@H](O)CC[C@]4(C)[C@H]3CC[C@]12C 1.08

Query: Euclidean distance; subject: CCOC(CN1CCN(CC(C)C(=O)c2ccccc2)CC1)c1ccccc1 (stereo not given) [Eprazinone 2HCl] 1.28

Query: Euclidean distance; subject: O=C(C1CCCCC1)N1CC(=O)N2CCc3ccccc3C2C1 (stereo not given) 1.36

Query: Euclidean distance; subject: CCC1=C(C)CN(C(=O)NCCc2ccc(S(=O)(=O)NC(=O)N[C@H]3CC[C@H](C)CC3)cc2)C1=O [Glimepiride] 0.801

Query: Euclidean distance; subject: CC(C)OC(=O)CCC/C=C\C[C@@H]1[C@@H](/C=C/C(F)(F)COc2ccccc2)[C@H](O)C[C@@H]1O 0.833

* * *

# System: 786-O
# Assay: Euclidean distance of Cell Painting phenotypic profile (signed KS, 77 features) to DMSO centroid (dimensionless distance); 5 or 10 uM (library dependent); higher = stronger phenotypic change vs DMSO (phenoactivity)
# Condition notes: 48 h
Structures can show the parent of a compound that is named as a salt.
Value type: Euclidean distance
Lab note: jot the number down without any unit.

Take a look at these entries with their results.
{"columns": ["Molecule", "Euclidean distance"],
 "data": [
  ["C[C@]1(Cn2ccnn2)[C@H](C(=O)O)N2C(=O)C[C@H]2S1(=O)=O", 0.708],
  ["CCN(CCCc1ccccc1)CCCc1ccccc1 [Alverine Citrate]", 0.97],
  ["C=C1CC[C@@H]2[C@](C)(CO)[C@H](O)CC[C@@]2(C)[C@@H]1C/C=C1/C(=O)OC[C@H]1O [Andrographolide]", 2.41]
]}

Next:
Query: Euclidean distance; subject: CC[C@@H]([C@H](C)O)n1ncn(-c2ccc(N3CCN(c4ccc(OC[C@@H]5CO[C@@](Cn6cncn6)(c6ccc(F)cc6F)C5)cc4)CC3)cc2)c1=O 3.81

* * *

# System: FB
# Assay: Euclidean distance of Cell Painting phenotypic profile (signed KS, 77 features) to DMSO centroid (dimensionless distance); 5 or 10 uM (library dependent); higher = stronger phenotypic change vs DMSO (phenoactivity)
# Condition notes: 48 h
Rule: Euclidean distance of 1 or more gives TRUE; anything lower gives FALSE.

{"columns": ["Molecule", "Category label"],
 "data": [
  ["O=C(C=Cc1ccccc1)NC(NC(=S)Nc1ccc(Cl)cc1)C(Cl)(Cl)Cl (centres undefined)", "TRUE"],
  ["N#Cc1ccc(Oc2ccc3c(c2)COB3O)cc1", "FALSE"],
  ["NNC(=O)c1ccncc1", "TRUE"],
  ["COc1ccc(/C=C\\c2cc(OC)c(OC)c(OC)c2)cc1O", "TRUE"],
  ["NS(=O)(=O)c1cc2c(cc1Cl)N=C(CSCc1ccccc1)NS2(=O)=O [Benzthiazide]", "TRUE"]
]}

In plain terms: is recorded Euclidean distance at least 1 for CCN1C(=O)NC(c2ccccc2)C1=O (centres undefined) ? FALSE

In plain terms: is recorded Euclidean distance at least 1 for Cc1nnc(C(C)C)n1C1C[C@H]2CC[C@@H](C1)N2CC[C@H](NC(=O)C1CCC(F)(F)CC1)c1ccccc1 (stereo in doubt) ? TRUE

In plain terms: is recorded Euclidean distance at least 1 for CCCCC/C=C\C/C=C\CCCCCCCC(=O)O ? TRUE

In plain terms: is recorded Euclidean distance at least 1 for CCCN[C@H]1CCc2nc(N)sc2C1 [Pramipexole] ? FALSE

* * *

Recorded measurements of Euclidean distance, one per entry
# Tested on: A549
# Assay: Euclidean distance of Cell Painting phenotypic profile (signed KS, 77 features) to DMSO centroid (dimensionless distance); 5 or 10 uM (library dependent); higher = stronger phenotypic change vs DMSO (phenoactivity)
# Condition notes: 48 h
Lab note: jot the number down without any unit.

What reported Euclidean distance corresponds to O=C(Nc1nc(-c2cc(Cl)cs2)c(N2CCN(C3CCCCC3)CC2)s1)c1cnc(N2CCC(C(=O)O)CC2)c(Cl)c1 on A549? 0.802

* * *

# Test system: HEPG2
# Assay: Euclidean distance of Cell Painting phenotypic profile (signed KS, 77 features) to DMSO centroid (dimensionless distance); 5 or 10 uM (library dependent); higher = stronger phenotypic change vs DMSO (phenoactivity)
# Condition notes: 48 h
Structures can show the parent of a compound that is named as a salt.
Rule: Euclidean distance of 0.9 or more gives criterion met; anything lower gives criterion not met.

{"columns": ["Compound", "Experimental target", "Category label"],
 "data": [
  ["Cc1nc(Nc2ncc(C(=O)Nc3c(C)cccc3Cl)s2)cc(N2CCN(CCO)CC2)n1 [Dasatinib hydrochloride]", "HEPG2", "criterion met"],
  ["O=C(/C=C/C=C/c1ccc2c(c1)OCO2)N1CCCCC1", "HEPG2", "criterion not met"],
  ["C[C@@H]1C[C@H]2[C@@H]3CCC4=CC(=O)C=C[C@]4(C)[C@@]3(F)[C@@H](O)C[C@]2(C)[C@H]1C(=O)CO", "HEPG2", "criterion met"]
]}

In plain terms: is recorded Euclidean distance at least 0.9 for CCOC(=O)[C@H](CCc1ccccc1)N[C@@H](C)C(=O)N1Cc2ccccc2C[C@H]1C(=O)O [Quinapril HCl] ? criterion not met

In plain terms: is recorded Euclidean distance at least 0.9 for CCCSc1nc(N[C@@H]2C[C@H]2c2ccc(F)c(F)c2)c2nnn([C@@H]3C[C@H](OCCO)[C@@H](O)[C@H]3O)c2n1 ? criterion met

* * *

# System: HEPG2
# Assay: Euclidean distance of Cell Painting phenotypic profile (signed KS, 77 features) to DMSO centroid (dimensionless distance); 5 or 10 uM (library dependent); higher = stronger phenotypic change vs DMSO (phenoactivity)
# Condition notes: 48 h
Value type: Euclidean distance
Lab note: jot the number down without any unit.

{"columns": ["Compound", "Val"],
 "data": [
  ["COc1cc(NS(=O)(=O)c2ccc(N)cc2)nc(OC)n1 [SulfadiMethoxine sodium]", 0.428]
]}

Query: Euclidean distance; subject: CCn1c(-c2nonc2N)nc2c(C#CC(C)(C)O)ncc(OC[C@H]3CCCNC3)c21 1.95

Query: Euclidean distance; subject: O=C1CCCC(=O)C1C(=O)c1ccc(C(F)(F)F)cc1[N+](=O)[O-] 0.455

Query: Euclidean distance; subject: CNC(=O)c1cc(Oc2ccc(NC(=O)Nc3ccc(Cl)c(C(F)(F)F)c3)cc2)ccn1 2.93

* * *

# System: A549
# Assay: Euclidean distance of Cell Painting phenotypic profile (signed KS, 77 features) to DMSO centroid (dimensionless distance); 5 or 10 uM (library dependent); higher = stronger phenotypic change vs DMSO (phenoactivity)
# Condition notes: 48 h
Structures can show the parent of a compound that is named as a salt.
Recorded measurements of Euclidean distance, one per entry
Lab note: jot the number down without any unit.

{"columns": ["Compound", "Euclidean distance"],
 "data": [
  ["O=C(NCc1ccc(Oc2ccccc2)cc1)c1nc(-c2cc(Br)c(O)c(Br)c2)no1", 1.1],
  ["CC#CC(=O)N1CCC[C@H]1c1nc(-c2ccc(C(=O)Nc3ccccn3)cc2)c2c(N)nccn12 [Acalabrutinib (ACP-196)]", 0.693],
  ["CSc1ccc2c(c1)N(CCC1CCCCN1C)c1ccccc1S2 (centres undefined) [Thioridazine hydrochloride]", 2.98]
]}

Query: Euclidean distance; subject: CN[C@@H]1[C@@H](O)[C@@H](O[C@@H]2[C@@H](O)[C@H](O[C@H]3OC(CN)=CC[C@H]3N)[C@@H](N)C[C@H]2N)OC[C@]1(C)O [Sisomicin sulfate] 1.53

Source: the supplement of paper PMC10127200
